Tested on: RXF 393 renal
Test: NCI tumour cell line growth inhibition, 384-well format; in the data active = GI50 below about 0.43 µM; inactive = the rest
Please state which outcome applies, choosing from Y for active, N for inactive

1. Cn1cc(-c2ccc3c(c2)ncn3-c2cc(NS(=O)(=O)C3CC3)cc(-c3ccc(F)cc3F)c2)cn1 | Y

query: Test call for this compound, please: O=C(O)CSc1cc(NS(=O)(=O)c2ccc(Br)cc2)c2ccccc2c1O
result: N

query: Test call for this compound, please: CNS(=O)(=O)Nc1nccc(Cc2c(C)c3ccc(Oc4ncccn4)cc3oc2=O)c1F
result: N

query: Test call for this compound, please: COc1ccc(-c2c(Nc3ccccn3)nc3c(C4=CCCCC4)c(-c4ccccc4)[nH]n3c2=O)cc1
result: Y

====

Assignment: determine reported TGI for the given compounds.
System: UACC-257 melanoma
Assay: NCI tumour cell line growth inhibition, 384-well format
Answers are plain numbers, in µM.

Consider the following illustrative entries.
1) O=C1[C@H](Cc2ccc(O)cc2)N2C(=O)CCN(C(=O)NCc3ccccc3)[C@H]2CN1Cc1cccc2ccccc12 | 14
2) COc1cc2c(Oc3ccc(-c4cnc(Nc5ccc(F)cc5)n(C)c4=O)cc3F)ccnc2cc1OCCCN1CCOCC1 | 1.09

Recorded TGI (compound Cn1cc(-c2ccc3c(c2)ncn3-c2cc(NS(=O)(=O)C3CC3)cc(-c3ccc(F)cc3F)c2)cn1 ): 10.3

====

System: UO-31 renal
Assay: NCI tumour cell line growth inhibition, 384-well format
Assignment: determine reported TGI for the given compounds.
Give bare numbers, in µM.

1) Nc1cc(C(F)(F)F)c(-c2nc(N3CCOCC3)nc(N3CCOCC3)n2)cn1 | 19.2
2) Cn1cc(-c2ccc3c(c2)ncn3-c2cc(NS(=O)(=O)C3CC3)cc(-c3ccc(F)cc3F)c2)cn1 | 7.66

Recorded TGI (compound O=C1[C@H](Cc2ccc(O)cc2)N2C(=O)CCN(C(=O)NCc3ccccc3)[C@H]2CN1Cc1cccc2ccccc12 ): 33.3

====

Test system: A498 renal
Assay: NCI tumour cell line growth inhibition, 384-well format
MEASURED METRIC: TGI (µM)
Give bare numbers, in µM.

1) O=C1[C@H](Cc2ccc(O)cc2)N2C(=O)CCN(C(=O)NCc3ccccc3)[C@H]2CN1Cc1cccc2ccccc12 | 9.62

Recorded TGI (compound Nc1cc(C(F)(F)F)c(-c2nc(N3CCOCC3)nc(N3CCOCC3)n2)cn1 ): 2.26

====

Tested on: MDA-MB-435 melanoma
Please state which outcome applies, choosing from true (1) (active), false (0) (inactive)

A selection of reference data follows.
1. COc1ccc(-c2c(Nc3ccccn3)nc3c(C4=CCCCC4)c(-c4ccccc4)[nH]n3c2=O)cc1 | false (0)
2. O=C1[C@H](Cc2ccc(O)cc2)N2C(=O)CCN(C(=O)NCc3ccccc3)[C@H]2CN1Cc1cccc2ccccc12 | false (0)
3. CNS(=O)(=O)Nc1nccc(Cc2c(C)c3ccc(Oc4ncccn4)cc3oc2=O)c1F | true (1)

Now for a further compound.
query: Test call for this compound, please: COc1cc2c(Oc3ccc(-c4cnc(Nc5ccc(F)cc5)n(C)c4=O)cc3F)ccnc2cc1OCCCN1CCOCC1
result: true (1)

====

Test system: NCI-H226 lung
Test: NCI tumour cell line growth inhibition, 384-well format
MEASURED METRIC: TGI

Consider the following illustrative entries.
1) C/C(=C\c1csc(C)n1)[C@@H]1C[C@@H]2O[C@]2(C)CCC[C@H](C)[C@H](O)[C@@H](C)C(=O)C(C)(C)[C@@H](O)CC(=O)N1 | > 100 µM
2) COc1ccc(-c2c(Nc3ccccn3)nc3c(C4=CCCCC4)c(-c4ccccc4)[nH]n3c2=O)cc1 | > 100 µM
3) COc1cc2c(Oc3ccc(-c4cnc(Nc5ccc(F)cc5)n(C)c4=O)cc3F)ccnc2cc1OCCCN1CCOCC1 | 1.57 µM

Please state, for each entry, its recorded TGI.
1. O=C(O)CSc1cc(NS(=O)(=O)c2ccc(Br)cc2)c2ccccc2c1O
2. Cn1cc(-c2ccc3c(c2)ncn3-c2cc(NS(=O)(=O)C3CC3)cc(-c3ccc(F)cc3F)c2)cn1

result:
18.5 µM
14.3 µM

====

Tested on: PC-3 prostate
Assay: NCI tumour cell line growth inhibition, 384-well format
Assignment: determine reported TGI for the given compounds.

Consider the following illustrative entries.
1. CNS(=O)(=O)Nc1nccc(Cc2c(C)c3ccc(Oc4ncccn4)cc3oc2=O)c1F | > 100 µM
2. COc1cc2c(Oc3ccc(-c4cnc(Nc5ccc(F)cc5)n(C)c4=O)cc3F)ccnc2cc1OCCCN1CCOCC1 | 2.86 µM
3. Nc1cc(C(F)(F)F)c(-c2nc(N3CCOCC3)nc(N3CCOCC3)n2)cn1 | 4.27 µM

# evaluate next
PC-3 prostate TGI of O=C(O)CSc1cc(NS(=O)(=O)c2ccc(Br)cc2)c2ccccc2c1O is 5.77 µM

====

System: HT29 colon
Assay: NCI tumour cell line growth inhibition, 384-well format
MEASURED METRIC: GI50

Consider the following illustrative entries.
1. Nc1cc(C(F)(F)F)c(-c2nc(N3CCOCC3)nc(N3CCOCC3)n2)cn1 | 554 nM
2. CNS(=O)(=O)Nc1nccc(Cc2c(C)c3ccc(Oc4ncccn4)cc3oc2=O)c1F | 41.8 nM
3. O=C1[C@H](Cc2ccc(O)cc2)N2C(=O)CCN(C(=O)NCc3ccccc3)[C@H]2CN1Cc1cccc2ccccc12 | 3170 nM

# evaluate next
HT29 colon GI50 of COc1ccc(-c2c(Nc3ccccn3)nc3c(C4=CCCCC4)c(-c4ccccc4)[nH]n3c2=O)cc1 is 4210 nM

====

Tested on: UACC-257 melanoma
Assay: NCI tumour cell line growth inhibition, 384-well format
Assignment: determine reported GI50 for the given compounds.

Consider the following illustrative entries.
1) O=C(O)CSc1cc(NS(=O)(=O)c2ccc(Br)cc2)c2ccccc2c1O | 1650 nM
2) Nc1cc(C(F)(F)F)c(-c2nc(N3CCOCC3)nc(N3CCOCC3)n2)cn1 | 1700 nM

Please state, for each entry, its recorded GI50.
1. Cn1cc(-c2ccc3c(c2)ncn3-c2cc(NS(=O)(=O)C3CC3)cc(-c3ccc(F)cc3F)c2)cn1
2. COc1ccc(-c2c(Nc3ccccn3)nc3c(C4=CCCCC4)c(-c4ccccc4)[nH]n3c2=O)cc1

result:
3020 nM
1610 nM

====

Assignment: determine reported TGI for the given compounds.
Tested on: DU-145 prostate
Assay: NCI tumour cell line growth inhibition, 384-well format
Give bare numbers, in µM.

Please state, for each entry, its recorded TGI.
1. Cn1cc(-c2ccc3c(c2)ncn3-c2cc(NS(=O)(=O)C3CC3)cc(-c3ccc(F)cc3F)c2)cn1
2. O=C1[C@H](Cc2ccc(O)cc2)N2C(=O)CCN(C(=O)NCc3ccccc3)[C@H]2CN1Cc1cccc2ccccc12

result:
1: 40.2; 2: 17.1

Please state, for each entry, its recorded TGI.
1. Nc1cc(C(F)(F)F)c(-c2nc(N3CCOCC3)nc(N3CCOCC3)n2)cn1
2. O=C(O)CSc1cc(NS(=O)(=O)c2ccc(Br)cc2)c2ccccc2c1O

result:
1. 21.3
2. 5.24

====

Tested on: A549 NSCLC
Assay: NCI tumour cell line growth inhibition, 384-well format
Assignment: determine reported TGI for the given compounds.
Answers are plain numbers, in µM.

1. COc1cc2c(Oc3ccc(-c4cnc(Nc5ccc(F)cc5)n(C)c4=O)cc3F)ccnc2cc1OCCCN1CCOCC1 | 1.8

Recorded TGI (compound O=C(O)CSc1cc(NS(=O)(=O)c2ccc(Br)cc2)c2ccccc2c1O ): 23.8

====

System: EKVX NSCLC
Experiment: NCI tumour cell line growth inhibition, 384-well format
MEASURED METRIC: TGI (µM)
Give bare numbers, in µM.

Consider the following illustrative entries.
1) Cn1cc(-c2ccc3c(c2)ncn3-c2cc(NS(=O)(=O)C3CC3)cc(-c3ccc(F)cc3F)c2)cn1 | 13.5
2) O=C(O)CSc1cc(NS(=O)(=O)c2ccc(Br)cc2)c2ccccc2c1O | 3.63
3) Nc1cc(C(F)(F)F)c(-c2nc(N3CCOCC3)nc(N3CCOCC3)n2)cn1 | 3.53

Recorded TGI (molecule O=C1[C@H](Cc2ccc(O)cc2)N2C(=O)CCN(C(=O)NCc3ccccc3)[C@H]2CN1Cc1cccc2ccccc12 ): 30.7

====

System: SR leukemia
Assay: NCI tumour cell line growth inhibition, 384-well format
Assignment: determine reported TGI for the given molecules.
Give bare numbers, in µM.

1. COc1ccc(-c2c(Nc3ccccn3)nc3c(C4=CCCCC4)c(-c4ccccc4)[nH]n3c2=O)cc1 | 1.09
2. Nc1cc(C(F)(F)F)c(-c2nc(N3CCOCC3)nc(N3CCOCC3)n2)cn1 | 0.255
3. Cn1cc(-c2ccc3c(c2)ncn3-c2cc(NS(=O)(=O)C3CC3)cc(-c3ccc(F)cc3F)c2)cn1 | 3.7

SR leukemia TGI of CNS(=O)(=O)Nc1nccc(Cc2c(C)c3ccc(Oc4ncccn4)cc3oc2=O)c1F is 40.9
